Values from paper PMC10397247

Molecular target: T1, 4H2619-bA
T1 chain: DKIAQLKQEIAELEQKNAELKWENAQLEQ
Assay: two-hybrid library CCNG1;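 further: natural log of median RNA to DNA barcode read ratio; higher means stronger binding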
Output fulfilled for interaction score not less than 0.004; output not fulfilled otherwise.

Please review the entries below; each comes with its answer.
DEIAQLEQENAELEQENAELEWEIAQLEQ [4H145-bA] | not fulfilled
DENAQLEQEIAELEQKIAELKWKNAQLKQ [4H1072-bA] | fulfilled
DKIAQLKQEIAELEQEIAELEWKNAQLKQ [4H2568-bA] | fulfilled
DENAQLEQKIAELKQEIAELEWENAQLEQ [4H1347-bA] | not fulfilled
DENAQLEQEIAELEQENAELEWKIAQLKQ [4H1046-bA] | not fulfilled

Could you tell me if the measured interaction score of DKIAQLKQEIAELEQKNAELKWENAQLEQ [4H2619-bA] reaches 0.004 or more? fulfilled
